target: rhesus IL-13 (rhesus, UniProt Q864V6 19-132, limits assumed); assay: cell-based or functional assay
Sequence (Q864V6 19-132 limits assumed): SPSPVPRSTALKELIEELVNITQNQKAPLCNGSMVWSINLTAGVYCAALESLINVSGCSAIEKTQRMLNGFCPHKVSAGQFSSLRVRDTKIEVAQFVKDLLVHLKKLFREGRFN
measuredMetric: HEK assay Rhesus EC50 (nM)

binder	valueReported
DOM10-53-568 (other) VH: GVQLLESGGGLVQPGGSLRLSCAASGFVFAWYDMGWVRQAPGKGLEWVSSIDWHGKITYYADSVKGRFTISRDNSKNTLYLQMNSLRAEDTAVYYCATAEDEPGYDYWGQGTLVTVSS	8.1
DOM10-53-616 (other) VH: GVQLLESGGGLVQPGGSLRLSCAASGFVFPWYDMGWVRQAPGKGLEWVSSIDWHGKITYYADSVKGRFTISRDNSKNTLYLQMNSLRAEDTAVYYCATAEDEPGYDYWGQGTLVTVSS	7.6
